# Study target: AcpS enzyme (Escherichia coli, UniProt P24224)
# Sequence (P24224 whole entry): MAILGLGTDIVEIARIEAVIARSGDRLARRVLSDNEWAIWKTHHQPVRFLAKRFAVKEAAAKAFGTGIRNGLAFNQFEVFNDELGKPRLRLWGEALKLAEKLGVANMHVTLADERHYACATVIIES
# Protocol details: Measurement of AcpS inhibition ([3H]acetyl-CoA incorporation into apo-ACP)
# Assay type: biochemical
# Condition description: test compound 50 uM; % activity vs blank-subtracted counts
Experimental endpoint: % AcpS activity at 50 uM (%)
// units = %; emit number, no label

Field: example entries. Status: answers known.
| Compound structure | Study target | % AcpS activity at 50 uM / % |
| --- | --- | --- |
| Brc1ccccc1-c1sc(-c2nnn[nH]2)cc1-c1ccccc1C1CCCC1 | AcpS enzyme (Escherichia coli, UniProt P24224) | 8.19 |
| c1ccc(C2CC2)c(-c2cc(-c3nnn[nH]3)sc2-c2ccccc2C2CC2)c1 | AcpS enzyme (Escherichia coli, UniProt P24224) | 33.7 |
| Clc1ccc(-c2cc(-c3nn[nH]n3)cc(-c3ccccc3-c3ccccc3)c2)cc1 | AcpS enzyme (Escherichia coli, UniProt P24224) | 12.79 |
| CC(C)c1ccccc1-c1cc(-c2nn[nH]n2)cc(-c2ccccc2C(C)C)c1 | AcpS enzyme (Escherichia coli, UniProt P24224) | 30.66 |

Task: Provide one value: measured % AcpS activity at 50 uM of "Cc1ccc(-c2cc(-c3nn[nH]n3)cc(-c3ccccc3-c3ccccc3)c2)c2ccccc12"
Result: 15.08

Task: Provide one value: measured % AcpS activity at 50 uM of "CN(C)c1ccc(Cl)cc1-c1cc(-c2nn[nH]n2)cc(-c2cc(Cl)ccc2N(C)C)c1"
Result: 8.4

###

# Study target: AcpS enzyme (Escherichia coli)
# Protocol details: Measurement of AcpS inhibition ([3H]acetyl-CoA incorporation into apo-ACP)
# Assay type: biochemical
# Condition description: test compound 500 uM; % activity vs blank-subtracted counts
Strictly below 0.5% in remaining activity at 500 µM: class 1. Otherwise: class 0.

Some solved cases for reference:
| Compound | Class name |
| --- | --- |
| Cc1ccc(-c2ccc(-c3ccc(C)c4ccccc34)c(-c3nnn[nH]3)c2)c2ccccc12 [DNM0446] | class 0 |
| Cc1cc(Cl)ccc1-c1cc(-c2nnn[nH]2)sc1-c1ccc(Cl)cc1C [DNM0488] | class 1 |
| FC(F)(F)c1ccccc1-c1cc(-c2nnn[nH]2)sc1-c1ccccc1C(F)(F)F [DNM0549] | class 1 |
| Fc1ccc(-c2cc(-c3nnn[nH]3)sc2Cc2ccc(Cl)cc2)c2ccccc12 [DNM0587] | class 1 |
| Cc1ccc(Cl)cc1-c1cc(-c2nnn[nH]2)sc1-c1cc(Cl)ccc1C [DNM0508] | class 1 |

Task: I wonder whether CC(C)c1ccc(-c2cc(-c3nnn[nH]3)sc2-c2ccc(C(C)C)cc2)cc1 [DNM0512] has remaining activity at 500 µM below 0.5%. Can you tell?
Result: class 0

Task: I wonder whether c1ccc(-c2ccccc2-c2cc(-c3nnn[nH]3)sc2-c2ccccc2-c2ccccc2)cc1 [DNM0489] has remaining activity at 500 µM below 0.5%. Can you tell?
Result: class 1

Task: I wonder whether Clc1ccc(-c2cc(-c3ccc(Cl)cc3)cc(-c3nn[nH]n3)c2)cc1 [DNM0470] has remaining activity at 500 µM below 0.5%. Can you tell?
Result: class 0

Task: I wonder whether CC(C)(C)c1ccc(-c2cc(-c3nnn[nH]3)sc2-c2ccc(C(C)(C)C)cc2)cc1 [DNM0546] has remaining activity at 500 µM below 0.5%. Can you tell?
Result: class 0

###

# Study target: AcpS enzyme (Escherichia coli)
# Protocol details: Measurement of AcpS inhibition ([3H]acetyl-CoA incorporation into apo-ACP)
# Type: biochemical
# Condition description: test compound 50 uM; % activity vs blank-subtracted counts
Binning scheme for activity at 50 µM: bin 1 = under 7%, bin 2 = from 7% up to 20%, bin 3 = 20% and over

| Compound | Class name |
| --- | --- |
| Clc1ccc(-c2cc(-c3nnn[nH]3)sc2-c2ccc(Cl)cc2)cc1 [DNM0487] | bin 1 |
| Clc1ccccc1-c1cc(-c2nnn[nH]2)sc1-c1ccccc1Cl [DNM0538] | bin 3 |
| CC(C)(C)c1ccc(-c2cc(-c3nnn[nH]3)sc2-c2ccc(C(C)(C)C)cc2)cc1 [DNM0546] | bin 3 |

Task: Could you tell me which band Cc1ccc(-c2sc(-c3nnn[nH]3)cc2-c2ccc(Cl)cc2)c2ccccc12 [DNM0572] belongs to?
Result: bin 1

Task: Could you tell me which band Cc1cc(Cl)ccc1-c1cc(-c2nnn[nH]2)sc1-c1ccc(Cl)cc1C [DNM0488] belongs to?
Result: bin 2

Task: Could you tell me which band Cc1ccc(-c2cc(-c3nn[nH]n3)cc(-c3ccc(C)c4ccccc34)c2)c2ccccc12 [DNM0461] belongs to?
Result: bin 2

Task: Could you tell me which band c1ccc2c(c1)oc1c(-c3cc(-c4nnn[nH]4)sc3-c3cccc4c3oc3ccccc34)cccc12 [DNM0542] belongs to?
Result: bin 2

Task: Could you tell me which band Cc1ccc(-c2cc(-c3nnn[nH]3)sc2-c2ccc(C)c3ccccc23)c2ccccc12 [DNM0486] belongs to?
Result: bin 1

Task: Could you tell me which band CCc1ccccc1-c1cc(-c2nnn[nH]2)sc1-c1ccccc1CC [DNM0541] belongs to?
Result: bin 3

Task: Could you tell me which band Cc1ccc(-c2cc(-c3nnn[nH]3)sc2Cc2ccc(Cl)cc2)c2ccccc12 [DNM0577] belongs to?
Result: bin 1

###

Overview of recorded remaining activity at 500 µM for various compounds
# Study target: AcpS enzyme (Escherichia coli, UniProt P24224)
# Protocol details: Measurement of AcpS inhibition ([3H]acetyl-CoA incorporation into apo-ACP)
# Assay type: biochemical
# Condition description: test compound 500 uM; % activity vs blank-subtracted counts
// units = %; emit number, no label

| Compound | Recorded number |
| --- | --- |
| Cc1ccc(C2(c3cccc(Cl)c3)C=C(c3nnn[nH]3)SC2)c2ccccc12 (stereo not shown) | 0.23 |

Task: Provide one value: measured remaining activity at 500 µM of "Cc1ccc(-c2cc(-c3nnn[nH]3)sc2Cc2ccc(Cl)cc2)c2ccccc12"
Result: 0.4

Task: Provide one value: measured remaining activity at 500 µM of "Cc1ccc(-c2cc(-c3nn[nH]n3)cc(-c3ccc(C)c4ccccc34)c2)c2ccccc12"
Result: 0.85

Task: Provide one value: measured remaining activity at 500 µM of "Cc1ccc(-c2cc(-c3ccc(Cl)cc3)cc(-c3nnn[nH]3)c2)c2ccccc12"
Result: 2.04

Task: Provide one value: measured remaining activity at 500 µM of "Fc1ccc(-c2cc(-c3nnn[nH]3)sc2-c2ccc(F)c3ccccc23)c2ccccc12"
Result: 0.14

Task: Provide one value: measured remaining activity at 500 µM of "Fc1ccc(-c2cc(-c3nn[nH]n3)cc(-c3ccc(F)c4ccccc34)c2)c2ccccc12"
Result: 39.4

Task: Provide one value: measured remaining activity at 500 µM of "c1ccc(Oc2ccccc2-c2cc(-c3nnn[nH]3)sc2-c2ccccc2Oc2ccccc2)cc1"
Result: 0.2

###

Overview of recorded MIC80 for various compounds
# Test system: Bacillus cereus NCTC6349
# Protocol details: MIC panel of challenge pathogens (CLSI)
# Format: cell-based
# Condition description: Bacillus cereus NCTC6349; read-out: MIC80 (80%)

Field: example entries. Status: answers known.
| Compound structure | MIC80 |
| --- | --- |
| Clc1ccc(Cc2sc(-c3nnn[nH]3)cc2-c2cccc(CC3CCCC3)c2)cc1 | 0.5 µg/mL |
| Cc1cc(Cl)ccc1-c1cc(-c2nnn[nH]2)sc1-c1ccc(Cl)cc1C | ≤ 0.25 µg/mL |
| Fc1ccc(-c2cc(-c3nnn[nH]3)sc2-c2ccc(F)c3ccccc23)c2ccccc12 | ≤ 0.25 µg/mL |

Consider the additional compound presented here.
Task: Provide one value: measured MIC80 of "Cc1cc(Cl)ccc1-c1cc(-c2nnn[nH]2)sc1-c1ccc(C)c2ccccc12"
Result: ≤ 0.25 µg/mL

###

# System: Staphylococcus aureus NRS384
# Protocol details: MIC panel of challenge pathogens (CLSI)
# Format: cell-based
# Condition description: Staphylococcus aureus NRS384; read-out: 100% inhibition
Experimental endpoint: MIC

Field: example entries. Status: answers known.
| Compound structure | MIC |
| --- | --- |
| CC(C)c1cc(Cl)ccc1-c1cc(C(=O)O)sc1-c1ccc(Cl)cc1C(C)C | 0.5 µg/mL |
| CCCCc1cccc(-c2cc(-c3nnn[nH]3)sc2Cc2ccc(Cl)cc2)c1 | ≤ 0.25 µg/mL |
| Cc1cc(Cl)ccc1-c1cc(-c2nnn[nH]2)sc1-c1ccc(C)c2ccccc12 | 0.5 µg/mL |
| Clc1ccc(Cc2sc(-c3nnn[nH]3)cc2-c2cccc(CC3CCCC3)c2)cc1 | ≤ 0.25 µg/mL |

Task: Provide one value: measured MIC of "Clc1ccc(-c2cc(-c3nnn[nH]3)sc2-c2ccc(Cl)cc2)cc1"
Result: 1 µg/mL

Task: Provide one value: measured MIC of "Fc1ccc(-c2cc(-c3nnn[nH]3)sc2-c2ccc(F)c3ccccc23)c2ccccc12"
Result: ≤ 0.25 µg/mL

Task: Provide one value: measured MIC of "CC(C)c1cc(Cl)ccc1-c1cc(-c2nnn[nH]2)sc1-c1ccc(Cl)cc1C(C)C"
Result: ≤ 0.25 µg/mL

Task: Provide one value: measured MIC of "Cc1cc(Cl)ccc1-c1cc(-c2nnn[nH]2)sc1-c1ccc(Cl)cc1C"
Result: 0.5 µg/mL

Task: Provide one value: measured MIC of "Cc1ccc(Cl)cc1-c1cc(-c2nnn[nH]2)sc1-c1cc(Cl)ccc1C"
Result: 1 µg/mL
